Data origin, for the record: PubChem BioAssay

Target: Left-right determination factor 2 (Homo sapiens)
Assay: small molecules binding LEFTY2 protein – biochemical, small-molecule microarray, 635 nm fluorescence scan, primary screen (AID 1110)
Settings: higher = more signal
property name: composite z-score
Field format: numeric only.

# compound, composite z-score
data = [
    ("COc1ccc(C(O)C2C=CC3C(=O)N(c4ccccc4)C(=O)C3N2Nc2ccc(C#N)cc2)cc1OCc1ccccc1 (stereo unspecified)", -0.165),
    ("N#Cc1ccc(NN2C(C(O)C3CC=CCC3)C=CC3C(=O)N(c4ccccc4)C(=O)C32)cc1 (stereo unspecified)", 0.0779),
]

Lookup: composite z-score of COc1cc(OC)c(C(O)C2C=CC3C(=O)N(c4ccccc4)C(=O)C3N2Nc2ccc(C(C)C)cc2)cc1Br (stereo unspecified) on Left-right determination factor 2 (Homo sapiens)?
Found: 0.513

Lookup: // map `CCOC(=O)C[C@H]1[C@H](OC(=O)c2ccccc2-c2ccccc2)[C@@H](NC(=O)C2CCCCC2)c2cc(OCCCO)ccc2N1C(=O)c1ccc2ccccc2n1` to recorded composite z-score (system: Left-right determination factor 2 (Homo sapiens))
Found: 0.358

Lookup: Can you look up composite z-score on Left-right determination factor 2 (Homo sapiens) for CCCCCC1=C2CNC(CC(C)C)(C(=O)OC)C=C2C(C)C1=O (stereo unspecified) ?
Found: -0.869

Lookup: Give composite z-score (Left-right determination factor 2 (Homo sapiens)) of the following compound: COc1ccc(C(O)C2C=CC3C(=O)N(C)C(=O)C3N2N(c2ccccc2)c2ccccc2)cc1 (stereo unspecified)
Found: -0.302

Lookup: Record lookup: for Left-right determination factor 2 (Homo sapiens), what composite z-score belongs to `CCCCC(=C=CC[C@H](O)c1ccc(CO)o1)CCO` ?
Found: 0.346

Lookup: Enter reported composite z-score observed with Left-right determination factor 2 (Homo sapiens) for `COc1ccc(C(=O)Nc2ccc3c(c2)[C@@]2(O[C@H](CCO)[C@@H]([Si](C)(C)c4ccc(OC)cc4)[C@@H]2C)C(=O)N3Cc2ccccc2)cc1`
Found: 0.219
